- Tested on: HEC-1B cell line
- EXPERIMENT: In vitro antiproliferative activity of compound against HEC-1-B (human endometrical caner ) cell line was determined by SRB assay
- Format: functional, cell-based
I'd be grateful if you could share measured pIC50 for these entries.
Just the number, please; pIC50 means minus log10 of the concentration in mol/L.

Prompt: Please state recorded pIC50 (tested on HEC-1B cell line) of O=Cc1cccc(C(=O)Sc2ccc(Cl)c(Cl)c2)n1
Response: 4.25

Prompt: Please state recorded pIC50 (tested on HEC-1B cell line) of N#Cc1ccc(C=O)nc1SCc1c(Cl)cccc1Cl
Response: 3.76

Prompt: Please state recorded pIC50 (tested on HEC-1B cell line) of CC[C@@]1(O)C(=O)OCc2c1cc1n(c2=O)Cc2cc3ccccc3nc2-1 [CAMPTOTHECIN]
Response: 5.06

====

# Telomerase reverse transcriptase (Homo sapiens): IC50 values follow
# Sequence (O14746 whole entry): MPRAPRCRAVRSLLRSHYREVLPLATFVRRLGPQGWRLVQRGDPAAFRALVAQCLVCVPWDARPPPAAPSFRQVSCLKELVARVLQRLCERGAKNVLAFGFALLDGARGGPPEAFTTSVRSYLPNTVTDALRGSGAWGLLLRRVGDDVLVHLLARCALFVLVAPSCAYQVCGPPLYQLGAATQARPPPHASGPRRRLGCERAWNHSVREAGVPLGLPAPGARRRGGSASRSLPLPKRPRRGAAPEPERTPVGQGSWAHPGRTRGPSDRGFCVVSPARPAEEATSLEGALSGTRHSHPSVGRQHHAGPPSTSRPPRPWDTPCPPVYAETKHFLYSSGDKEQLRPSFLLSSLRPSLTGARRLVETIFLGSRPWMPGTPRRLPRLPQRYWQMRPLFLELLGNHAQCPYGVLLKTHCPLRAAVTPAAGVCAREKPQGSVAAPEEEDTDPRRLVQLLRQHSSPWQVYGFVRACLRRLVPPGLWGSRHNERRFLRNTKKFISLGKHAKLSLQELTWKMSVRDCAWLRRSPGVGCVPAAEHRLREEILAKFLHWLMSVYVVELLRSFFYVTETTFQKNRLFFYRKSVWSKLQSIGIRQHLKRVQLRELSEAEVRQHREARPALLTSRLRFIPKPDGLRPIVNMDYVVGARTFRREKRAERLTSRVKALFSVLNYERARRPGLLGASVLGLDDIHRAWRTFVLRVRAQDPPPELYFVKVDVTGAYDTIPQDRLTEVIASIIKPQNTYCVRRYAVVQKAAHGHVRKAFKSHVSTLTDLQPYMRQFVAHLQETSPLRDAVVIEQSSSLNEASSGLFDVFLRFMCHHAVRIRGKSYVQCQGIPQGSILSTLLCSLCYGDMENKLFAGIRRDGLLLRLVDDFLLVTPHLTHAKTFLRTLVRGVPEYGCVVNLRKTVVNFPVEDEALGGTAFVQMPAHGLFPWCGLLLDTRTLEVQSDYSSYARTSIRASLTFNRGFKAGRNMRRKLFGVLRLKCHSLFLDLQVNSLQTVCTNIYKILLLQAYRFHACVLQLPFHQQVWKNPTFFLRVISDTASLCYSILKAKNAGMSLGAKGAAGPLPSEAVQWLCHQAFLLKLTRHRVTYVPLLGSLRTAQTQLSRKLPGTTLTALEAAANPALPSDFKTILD
Expressed in µM, but write only the number.

Prompt: Entry under review: COc1cccc(SC(=O)c2cccc(C=O)n2)c1 . Reported IC50?
Response: 76

Prompt: Entry under review: O=Cc1cccc(C(=O)Sc2ccc([N+](=O)[O-])cc2)n1 . Reported IC50?
Response: 75

Prompt: Entry under review: O=Cc1cccc(C(=O)Sc2ccc(Cl)cc2)n1 . Reported IC50?
Response: 33

Prompt: Entry under review: Cc1cccc(SC(=O)c2cccc(C=O)n2)c1 . Reported IC50?
Response: 76

Prompt: Entry under review: O=Cc1cccc(C(=O)Sc2cc(Cl)cc(Cl)c2)n1 . Reported IC50?
Response: 64

Prompt: Entry under review: O=Cc1cccc(C(=O)Sc2ccc(Br)cc2)n1 . Reported IC50?
Response: 56

Every entry's value here was drawn from ChEMBL document CHEMBL1136577.
